Target under test: human mAChRM1 (Homo sapiens, UniProt P11229)
Construct: host or cells: CHO-K1
Sequence (P11229 whole entry): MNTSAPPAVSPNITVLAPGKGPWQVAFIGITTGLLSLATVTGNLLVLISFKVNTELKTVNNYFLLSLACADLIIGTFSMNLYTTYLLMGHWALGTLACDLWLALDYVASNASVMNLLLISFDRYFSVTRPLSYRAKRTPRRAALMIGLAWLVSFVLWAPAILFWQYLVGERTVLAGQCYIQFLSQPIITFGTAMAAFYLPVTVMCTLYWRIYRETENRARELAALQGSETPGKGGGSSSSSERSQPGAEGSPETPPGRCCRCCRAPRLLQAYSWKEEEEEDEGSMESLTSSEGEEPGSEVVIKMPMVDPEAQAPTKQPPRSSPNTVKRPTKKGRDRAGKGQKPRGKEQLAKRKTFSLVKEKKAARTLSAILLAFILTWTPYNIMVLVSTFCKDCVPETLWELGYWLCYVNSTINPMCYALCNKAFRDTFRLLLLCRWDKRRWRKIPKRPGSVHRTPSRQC
Protocol text: mAChR M1 cell-based functional assay (calcium mobilization), positive allosteric modulator activity: increase in the EC20 acetylcholine response
Experimental parameters: increase in the EC20 acetylcholine response, read-out: PAM Activity Human M1 EC50
pEC50: −log10 of the molar value.
# key: entry, value: pEC50
Experimental endpoint: pEC50

1. Cc1cc(-c2cc(C(C)(C)O)cc3nn[nH]c23)cc(F)c1CN1Cc2ncccc2C1=O [Compound 74]; ≤ 5.00
2. Cn1ncc2c(-c3cc(F)c(CN4Cc5cccc(F)c5C4=O)c(F)c3)ccc(C(C)(C)O)c21 [Compound 157]; ≤ 5.00
3. CC(C)(O)c1cncc(-c2cc(F)c(CN3Cc4ncccc4C3=O)c(F)c2)c1 [Compound 42]; ≤ 5.00
